The reported numbers originate from PubChem BioAssay (NCI).

Tested on: A498 renal
procedureDetails: NCI-60 one-dose screen, 48 h (100 = growth as untreated, 0 = no growth, -100 = all killed)
recordedConditions: 10 µM unless noted
The panel holds about 83,000 compounds, 20% with a hit somewhere; the sample as a whole holds those more often.
Class field: derived from growth; ranges bin A: < 70%; bin B: ≥ 70% and < 80%; bin C: ≥ 80%

compound: COc1cccc(/C(C#N)=C/c2nc3c(N4CCOCC4)nc(Cl)nc3n2C)c1
qualitativeLabel: bin A

compound: O=C(O)CCC(=O)c1ccc(C2CCCCCC2)cc1
qualitativeLabel: bin C

q: Would you mind sorting CCC1=C[C@]2(C3CC(=O)N(c4ccccc4)C3=O)CC(C(C)(C)C)C[C@@H]2[C@@H]2C(=O)N(c3ccccc3)C(=O)[C@H]12 (stereo not given in full) into the appropriate category?
a: bin C

q: Would you mind sorting O=Cc1c(OCc2cnnn2CC(=O)Nc2ccc(Br)cc2)ccc2ccccc12 into the appropriate category?
a: bin B

q: Would you mind sorting Cc1nc2ccccc2c(/C=C/c2ccc(F)cc2)c1C(N)=O into the appropriate category?
a: bin C

q: Would you mind sorting Cc1cccc(NC(=O)c2sc3nc4c(cc3c2N)CCCC4)c1C into the appropriate category?
a: bin A

q: Would you mind sorting O=C1NC(=O)C(=Cc2cn(Cc3cn(Cc4ccc(Cl)cc4Cl)nn3)c3ccccc23)C(=O)N1 into the appropriate category?
a: bin A

q: Would you mind sorting O=C(/C=C/c1cccc(Cl)c1)OCc1ccc2cc1OCC#C/C=C\C#CCO2 into the appropriate category?
a: bin B

====

Tested on: T-47D breast
procedureDetails: NCI-60 one-dose screen, 48 h (100 = growth as untreated, 0 = no growth, -100 = all killed)
recordedConditions: 10 µM unless noted
About 83,000 compounds went through this panel and 20% of them were active in at least one assay; those are over-represented in the sample as a whole.
Output 1 for records whose growth is lower than 60%, 0 for records at or above 60%.

structureString: CCN(CCO)CCNc1ccc(C)c2sc3cc(Cl)ccc3c(=O)c12
qualitativeLabel: 1

q: Consider COc1cccc2c1C=C1CCCCC3=Cc4c(OC)cccc4OC13O2 . Does its growth lie strictly below 60%?
a: 1

q: Consider Brc1ccc(Oc2ccc(Nc3ncnc4onc(-c5ccccc5)c34)cc2)cc1 . Does its growth lie strictly below 60%?
a: 0

====

System: RPMI-8226 leukemia
procedureDetails: NCI-60 one-dose screen, 48 h
recordedConditions: 10 µM unless noted
The panel holds about 83,000 compounds, 20% with a hit somewhere; the sample as a whole holds those more often. Calls of active or inactive are those of the source. How the source made its calls: active means growth percent below 10; inactive means the rest.
Entry note: the call must match one of active, inactive

Solved cases below.
molecule: CC[C@@H](C)[C@H](NC(=O)Cn1cc(CNC(=O)[C@@H](NC(=O)OCc2ccccc2)C(C)C)nn1)C(=O)O
qualitativeLabel: inactive

molecule: COc1ccc(-c2nsc3c2NC(=O)CC3c2cccc(OC)c2)cc1 (stereo not given)
qualitativeLabel: inactive

q: Which outcome was assigned to Cc1nc(Nc2ccccn2)sc1C(=O)/C=C/c1ccc(Cl)cc1 in this test?
a: inactive

q: Which outcome was assigned to CCc1ccc(CNCC(O)c2ccccc2)cc1 (stereo not given) in this test?
a: inactive

q: Which outcome was assigned to CCN1C(=O)N(CC)C2C1NN=c1s/c(=C3\C(=O)N(C(C)C)c4ccccc43)c(=O)n12 (stereo not given) in this test?
a: active

q: Which outcome was assigned to CCOc1ccc2nc(C)cc(Nc3ccc(Br)cc3)c2c1 in this test?
a: inactive

q: Which outcome was assigned to CCN1C(=O)N(c2ccccc2)C2NN=c3s/c(=C4\C(=O)N(C(C)C)c5ccccc54)c(=O)n3C21 (stereo not given) in this test?
a: inactive

q: Which outcome was assigned to O=c1c2cc(F)ccc2sc2c(Nc3ccncc3)nc3ccccc3c12 in this test?
a: active

q: Which outcome was assigned to COc1ccc(Br)c(/C=C2\SC(=Nc3ccc(O)cc3)NC2=O)c1 in this test?
a: inactive

q: Which outcome was assigned to CC(C)C[C@H](C(=O)N[C@H](C(N)=O)C(C)C)N1CC=CCN(OCc2ccccc2)S1(=O)=O in this test?
a: inactive

====

Record form. Attribute: growth. Fill in for each entry.
Test system: BT-549 breast
procedureDetails: NCI-60 one-dose screen, 48 h (100 = growth as untreated, 0 = no growth, -100 = all killed)
recordedConditions: 10 µM unless noted
Compounds without any hit were thinned out: in the full panel of roughly 83,000, 20% have a hit.
Answers are plain numbers, in %.

compound: O=C(NCc1ccccc1)C1CN(c2ccc(Cl)cc2)N(c2ccc(Cl)cc2)C1=O (centres undefined)
growth / %: 83.4

compound: O=C1C(Cl)=C(NCc2ccco2)C(=O)c2ccccc21
growth / %: 103

Give me growth for each of these compounds, listed below.
1. O=C(c1nc2ccccc2[nH]1)C1C(c2ccc([N+](=O)[O-])cc2)C2CC3CCCCC3N2[C@@]12C(=O)Nc1cc(Cl)ccc12 (some centres undefined)
2. CC(=O)SC1CC(=O)C=C2CCC3C4CCC(=O)OC4(C)CCC3C21C (centres undefined)
3. CCN(CC)c1cc(C)c2cc(NC(=O)c3cccc(OC)c3)ccc2n1

a:
46.9
92.4
80.9

Give me growth for each of these compounds, listed below.
1. COc1cc(/C=C2\CN(C)C/C(=C\c3cc(CN4CCOCC4)c(O)c(OC)c3)C2=O)cc(CN2CCOCC2)c1O
2. CCOc1ccccc1CN1CCc2nc3cc(C(C)(C)C)[nH]n3c(=O)c2C1
3. CCCCc1ccc(NS(=O)(=O)c2cc3c4c(c2)CCN4C(=O)CC3)cc1
4. Cc1sc2ncn(CC(=O)Nc3ccc(S(N)(=O)=O)cc3)c(=O)c2c1C

a:
94
106
0.335
97.7

====

Test system: OVCAR-4 ovarian
procedureDetails: NCI-60 one-dose screen, 48 h (100 = growth as untreated, 0 = no growth, -100 = all killed)
recordedConditions: 10 µM unless noted
Protocol: Growth inhibition of the OVCAR-4 human tumor cell line is measured as a screen for anti-cancer activity. Cells are grown in 96 well plates and exposed to the test compound for 48 hours. Compounds are tested at a single concentration, which is 10^-5 M for most compounds. The reported endpoint is percent growth (GI% or GIPRCNT), where numbers from 0 - 100% represent growth inhibition, and numbers from -100% - 0 represent cell death. For example, a value of 40 represents 60% growth inhibition. […]
The panel holds about 83,000 compounds, 20% with a hit somewhere; the sample as a whole holds those more often. The source made the active and inactive calls. The calls were made as follows: active = growth percent below 10; inactive = the rest.
parameter: growth

Examples with their reported growth follow.
compound: COc1ccc(-c2nsc3c2NC(=O)CC3c2cccc(OC)c2)cc1 (stereo not given)
parameter: growth
value: 39.9% (inactive)

compound: CN1C(=O)N(C)C2(c3ccccc3)OC(=S)NC12c1ccccc1 (stereo not given)
parameter: growth
value: 96.1% (inactive)

compound: O=C(CCc1nnc2sc(COc3ccccc3)nn12)c1nc2ncccc2[nH]1
parameter: growth
value: 100% (inactive)

compound: COc1cc(/C=C/C(=O)c2c(C)nc3ccccc3c2/C=C/c2ccccc2)cc(OC)c1OC
parameter: growth
value: 40.8% (inactive)

compound: CCCCCCC(O)(c1ccc(F)cc1)C(CN1CCOCC1)c1ccccc1 (stereo not given)
parameter: growth
value: 31.7% (inactive)

Give me growth for each of these compounds, listed below.
1. COc1ccc(Cn2cc(Cn3cc(C=C4C(=O)NC(=O)NC4=O)c4ccccc43)nn2)cc1
2. CN1CCN(Cc2ccc(NC(=O)c3cncc(C#Cc4nc(N)nc5[nH]ncc45)c3)cc2C(F)(F)F)CC1
3. OC(CNC1CCCCC1)Cn1c2ccc(I)cc2c2cc(I)ccc21 (stereo not given)

a:
82.4% (inactive)
88.8% (inactive)
77% (inactive)

Give me growth for each of these compounds, listed below.
1. O=c1oc2ccc(I)cc2c(=O)n1-c1ccc(I)cc1F
2. COc1ccccc1C(=O)/C=C/c1ccccc1

a:
1. 16.7% (inactive)
2. 88.6% (inactive)

====

Test system: SF-539 CNS
procedureDetails: NCI-60 one-dose screen, 48 h
recordedConditions: 10 µM unless noted
The panel holds about 83,000 compounds, 20% with a hit somewhere; the sample as a whole holds those more often. The source made the active and inactive calls. Rule for the calls: active = growth percent below 10; inactive = the rest.
Entry note: the call must match one of TRUE (active), FALSE (inactive)

molecule: Cc1c(-c2noc(-c3ccc([N+](=O)[O-])cc3)n2)no[n+]1[O-]
qualitativeLabel: FALSE

q: Which outcome was assigned to O=C(Nc1ccc(Br)cc1F)c1cc(F)ccc1O in this test?
a: TRUE

====

System: SNB-75 CNS
procedureDetails: NCI-60 one-dose screen, 48 h (100 = growth as untreated, 0 = no growth, -100 = all killed)
recordedConditions: 10 µM unless noted
This is part of a sample that, as a whole, favours compounds with a hit. Of some 83,000 tested, about 20% had one in any assay.
parameter: growth (%)
Numbers only, in %.

Examples with their reported growth follow.
molecule: CCOc1ccc(Nc2ccnc3cc(Cl)ccc23)cc1
unitSpec: %
growth: 1.25
//
molecule: COc1ccc(C(O)(CCC(C)C)C(CN2CCOCC2)c2ccc(Cl)cc2)cc1 (stereo not given)
unitSpec: %
growth: 74.4
//
molecule: COc1ccc(N)c(-c2cc3c(c4c2[nH]c2ccc(OC)cc24)CCCC3)c1
unitSpec: %
growth: 70.9
//
molecule: CC(=Nc1ccccc1)C1=C(O)C(Cc2ccc(F)cc2)NC1=O (stereo not given)
unitSpec: %
growth: 17.9

Give me growth for each of these molecules, listed below.
1. Cc1ccc(OCCCCCCNCCO)c(C)c1
2. CCOC(=O)C1(C(=O)OCC)N=C(c2ccccc2)C=C1c1ccccc1

a:
31.1
81.2

Give me growth for each of these molecules, listed below.
1. COc1ccc(C2C3=C(COC3=O)N(CCO)c3cc4c(cc32)OCCO4)cc1 (stereo not given)
2. CCOC(=O)c1sc(-c2ccc(OS(=O)(=O)c3cccs3)c(C=O)c2)nc1C
3. COc1ccc(/C=C/C(=O)c2ccc3cc(OC)c(OC)cc3c2)cc1OC
4. CC1=C(C(=O)OCC2CCN(C(=O)OC(C)(C)C)CC2)[C@@H](c2cccc(C#N)c2)C2=C(CC(C)(C)CC2=O)N1
5. COc1ccc(C(=O)Nc2ccc3nc(N4CCCCC4)cc(C)c3c2)cc1OC
6. COc1c(B(O)O)cccc1-c1nc2ccc3[nH]ncc3c2c2c1C1CCC2C1 (stereo not given)
7. NC(CCl)=NCCC[C@H](N)C(=O)O

a:
60.4
4.62
49.7
56.9
102
2.23
89.6

Give me growth for each of these molecules, listed below.
1. COC(=O)[C@H](NC(=O)C1(C)CCC[C@]2(C)[C@H]3C[C@H]4C(C(C)C)=C[C@]3(CC[C@@H]12)[C@@H]1C(=O)CCC(=O)[C@@H]14)C(C)C (stereo not given in full)
2. CCCCN1CCN(c2ccc3nc(-c4ccc5nc(-c6ccc(OC)c(OC)c6)[nH]c5c4)[nH]c3c2)CC1

a:
[83.7, 6.59]

Give me growth for each of these molecules, listed below.
1. O=C(NCc1ccco1)C1CN(c2ccc(Cl)cc2)N(c2ccc(Cl)cc2)C1=O (stereo not given)
2. Cc1nc(Nc2ccccn2)sc1C(=O)/C=C/c1ccc(Cl)cc1
3. COc1cccc(C2=NN3C(C2)c2ccccc2OC3c2ccc(/C=C3\SC(=O)NC3=O)cc2)c1 (stereo not given)
4. CCn1c(SCC(=O)Nc2cc(C(F)(F)F)ccc2Cl)nc2ccccc2c1=O
5. O=C(CSc1ccc2nnc(-c3cccc(F)c3)n2n1)Nc1ccc2c(c1)OCO2

a:
1. 16.8
2. 11.9
3. 95
4. 13.4
5. -22.3
